Attribution: patent US11840574B2

# target: Human DR5 (Homo sapiens, UniProt O14763)
# test.description: Binding affinity of antibody to human DR5 (BIAcore, CM5 chip)
# protocol.conditions: association rate, Human DR5, 1:1 Langmuir binding model
# Protocol: In order to measure affinity, human DR5 was coupled to carboxylated dextran biosensor chips (CM5, GE) according to the manufacturer's instruction. Association and dissociation rates were assessed by injecting IgG proteins that were 2-fold serially diluted to 5 nM, 2.5 nM, 1.25 nM, 0.625 nM, 0.313 nM, and 0.156 nM. […]
value.type: Ka(1/Ms)

Data request, read-out Ka(1/Ms), for DA12: humanized or deimmunized variant of parental clone D0; CDRs SEQ ID NO 1, 2, 7 / 4, 11, 13 (antibody, V domains shown) VH: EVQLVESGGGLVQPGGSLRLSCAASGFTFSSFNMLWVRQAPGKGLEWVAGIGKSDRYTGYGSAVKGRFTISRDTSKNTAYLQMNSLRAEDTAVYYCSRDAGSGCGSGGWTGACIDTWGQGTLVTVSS VL: DIQMTQSPSSLSASVGDRVTITCSGGDSYAGSYYYGWYQQKPGKAPKTLIYNNNNLMPGVPSRFSGSRSGTDFTLTISSLQPEDFATYYCGSRDSSYVGIFGQGTKVEIK
2.37 × 10^06 1/Ms

Data request, read-out Ka(1/Ms), for DA25: humanized or deimmunized variant of parental clone D0; CDRs SEQ ID NO 1, 2, 7 / 4, 10, 13 (antibody, V domains shown) VH: AVTLDESGGGLQTPGGGLSLVCKGSGFTFSSFNMLWVRQAPGKGLEWVAGIGKSDRYTGYGSAVKGRATISRDDGQSTVYLQMNSLRAEDTGTYYCVKDAGSGCGSGGWTGACIDTWGHGTEVIVSS VL: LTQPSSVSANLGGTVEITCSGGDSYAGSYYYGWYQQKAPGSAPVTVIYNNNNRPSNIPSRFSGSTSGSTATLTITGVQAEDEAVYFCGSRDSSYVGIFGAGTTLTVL
1.05 × 10^06 1/Ms

Data request, read-out Ka(1/Ms), for DA32: humanized or deimmunized variant of parental clone D0; CDRs SEQ ID NO 1, 2, 7 / 4, 10, 13 (antibody, V domains shown) VH: AVTLDESGGGLQTPGGGLSLVCKGSGFTFSSFNMLWVRQAPGKGLEWVAGIGKSDRYTGYGSAVKGRATISRDDGQSTVRLQLNNLRAEDTAVYYCVKDAGSGCGSGGWTGACIDTWGHGTEVIVSS VL: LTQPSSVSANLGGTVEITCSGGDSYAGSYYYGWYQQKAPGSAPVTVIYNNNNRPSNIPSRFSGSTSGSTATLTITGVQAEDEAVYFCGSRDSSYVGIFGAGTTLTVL
1.14 × 10^06 1/Ms

Data request, read-out Ka(1/Ms), for DA28: humanized or deimmunized variant of parental clone D0; CDRs SEQ ID NO 1, 2, 7 / 4, 10, 13 (antibody, V domains shown) VH: AVTLDESGGGLQTPGGGLSLVCKGSGFTFSSFNMLWVRQAPGKGLEWVAGIGKSDRYTGYGSAVKGRATISRDDGQSTARLQLNNLRAEDTGTYYCVKDAGSGCGSGGWTGACIDTWGHGTEVIVSS VL: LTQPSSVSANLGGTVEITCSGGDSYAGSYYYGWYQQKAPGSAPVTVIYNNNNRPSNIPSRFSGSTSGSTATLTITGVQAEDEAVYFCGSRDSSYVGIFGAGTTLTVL
1.16 × 10^06 1/Ms
